test system: U-251; assay: Antiproliferative activity against human U-251 cells assessed as inhibition of cell growth incubated for 72 hrs by CCK8 assay; assay type: functional, cell-based; settings: U-251, 72 h
MEASURED_QUANTITY: IC50 (nM)
Answers are plain numbers, in nM.

Read the entry Nc1nc2cc(-c3nc(N4CCOCC4)nc(N4CCOCC4)n3)ccc2o1 and write its reported IC50.
430

---

assay: Oral bioavailability in Sprague-Dawley rat at 10 mg/kg measured after 24 hrs; assay type: ADME, organism-based; details: in vivo
MEASURED_QUANTITY: bioavailability (%)
One number for each entry, in %.

Return bioavailability (reported value) for this compound: Nc1nc2cc(-c3nc(N4CCOCC4)nc(N4CCOCC4)n3)ccc2o1
130
